meta.source: patent US20120207760A1

Consider the following binders; for each one, report its OD450.
Target: Hemagglutinin of influenza A/Solomon Islands/3/06 (H1N1), on inactivated whole virions (Influenza A virus A/Solomon …)
Test: ELISA, B cell culture supernatant on inactivated whole virions
Give bare numbers, in OD450.

Solved cases (2 shown):
{"columns": ["BINDER", "OD450 / OD450"],
 "data": [
  ["TCN-523 (5248_A17) (antibody, V domains shown) VH: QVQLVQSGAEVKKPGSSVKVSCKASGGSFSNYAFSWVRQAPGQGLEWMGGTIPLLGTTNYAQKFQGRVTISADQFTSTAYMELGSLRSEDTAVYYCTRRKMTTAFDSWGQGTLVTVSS VL: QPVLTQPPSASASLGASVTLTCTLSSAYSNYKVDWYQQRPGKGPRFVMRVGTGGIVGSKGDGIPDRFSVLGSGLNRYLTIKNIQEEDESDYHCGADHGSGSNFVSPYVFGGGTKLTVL", 3.47],
  ["TCN-530 (5248_H10a) (antibody, V domains shown) VH: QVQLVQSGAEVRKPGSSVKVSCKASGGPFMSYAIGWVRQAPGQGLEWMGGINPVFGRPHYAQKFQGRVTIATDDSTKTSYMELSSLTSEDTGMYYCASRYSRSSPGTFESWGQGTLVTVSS VL: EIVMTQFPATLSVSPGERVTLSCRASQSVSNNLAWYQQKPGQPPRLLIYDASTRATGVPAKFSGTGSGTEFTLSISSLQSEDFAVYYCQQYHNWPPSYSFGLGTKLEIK", 3.52]
]}

Field: next binder
# lookup: OD450 of TCN-539 (5056_A08) (antibody, V domains shown) VH: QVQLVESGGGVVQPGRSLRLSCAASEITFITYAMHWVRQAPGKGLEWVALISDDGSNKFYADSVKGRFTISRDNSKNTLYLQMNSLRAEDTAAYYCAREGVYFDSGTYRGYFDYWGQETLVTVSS VL: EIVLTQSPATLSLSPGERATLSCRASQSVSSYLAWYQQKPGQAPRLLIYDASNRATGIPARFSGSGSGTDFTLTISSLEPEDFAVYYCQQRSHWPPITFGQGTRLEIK 0.06
